Cited source: patent US20260209220A1

- Experimental System: rM4 receptors (Rattus norvegicus)
- Sequence (P08485 whole entry): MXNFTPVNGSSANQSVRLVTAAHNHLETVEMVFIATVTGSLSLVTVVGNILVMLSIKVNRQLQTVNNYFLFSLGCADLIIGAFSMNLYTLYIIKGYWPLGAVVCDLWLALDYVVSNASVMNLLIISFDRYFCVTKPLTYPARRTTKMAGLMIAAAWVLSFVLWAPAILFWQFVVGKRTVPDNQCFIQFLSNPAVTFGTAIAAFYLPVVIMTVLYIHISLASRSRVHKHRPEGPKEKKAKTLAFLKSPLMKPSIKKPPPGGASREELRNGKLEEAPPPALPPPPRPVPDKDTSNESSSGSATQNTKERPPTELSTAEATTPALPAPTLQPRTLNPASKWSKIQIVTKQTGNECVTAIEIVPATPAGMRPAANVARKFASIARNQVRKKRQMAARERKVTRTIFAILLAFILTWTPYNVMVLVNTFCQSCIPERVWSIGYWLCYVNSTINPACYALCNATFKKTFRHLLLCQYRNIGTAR
- Protocol Details: Rat M4 PAM PERK assay (CHO cells, TR-FRET, with EC20 acetylcholine)
pEC50: −log10 of the molar value.
Readout Name: pEC50

>>> print(df.to_string())
                                    compound                experimental_system  readout_name  experimental_result
 0  Cc1c2c(n(C)c(=O)c1Cl)CN(C(=O)CC1CN(c3ccc(C(F)(F)F)nc3)C1)C2  rM4 receptors (Rattus norvegicus)         pEC50         6.70 to 7.30
 1  CSc1c2c(n(C)c(=O)c1C)CN(C(=O)CC1CN(c3ccnc(C(F)(F)F)c3)C1)C2  rM4 receptors (Rattus norvegicus)         pEC50               < 6.00
 2  Cc1c2c(n(C)c(=O)c1C#N)CN(C(=O)CC1CN(c3ccnc(C(F)(F)F)c3)C1)C2  rM4 receptors (Rattus norvegicus)         pEC50         6.00 to 6.70
 3  Cc1c2c(n(C)c(=O)c1C)CN(C(=O)CC1CN(c3ccc(C4CC4)c(F)c3)C1C)C2 (single isomer, unassigned) [Compound I-61]  rM4 receptors (Rattus norvegicus)         pEC50               > 7.30
 4  Cc1cc(=O)n(C)c2c1CN(C(=O)CC1CN(c3cccc(F)c3F)C1)C2  rM4 receptors (Rattus norvegicus)         pEC50         6.00 to 6.70
 5  Cc1c2c(n(C)c(=O)c1Br)CN(C(=O)CC1CN(c3ccnc(C(F)(F)F)c3)C1)C2  rM4 receptors (Rattus norvegicus)         pEC50         6.00 to 6.70
 6  Cc1c2c(n(C)c(=O)c1F)CN(C(=O)CC1CN(c3ccc(C4CC4)c(F)c3)C1)C2  rM4 receptors (Rattus norvegicus)         pEC50               > 7.30
 7  Cc1cc(=O)n(C)c2c1CN(C(=O)CC1CN(c3ccnc(OCC4CC4)c3)C1)C2  rM4 receptors (Rattus norvegicus)         pEC50         6.00 to 6.70
 8  Cc1cc(=O)n(C)c2c1CN(C(=O)CC1CN(c3ccnc(C4CC4)c3)C1)C2  rM4 receptors (Rattus norvegicus)         pEC50         6.00 to 6.70
 9  Cc1cc(=O)n(C)c2c1CN(C(=O)CC1CN(c3ccc(S(C)(=O)=O)cc3)C1)C2  rM4 receptors (Rattus norvegicus)         pEC50               < 6.00
10  Cc1c2c(n(C)c(=O)c1Cl)CN(C(=O)CC1CN(c3ccnnc3)C1)C2  rM4 receptors (Rattus norvegicus)         pEC50               < 6.00
11  Cc1c2c(n(C)c(=O)c1C)CN(C(=O)CC1CN(c3nc(C(F)(F)F)c(C4CC4)s3)C1)C2  rM4 receptors (Rattus norvegicus)         pEC50         6.00 to 6.70
12  COc1cccc(N2CC(CC(=O)N3Cc4c(C)cc(=O)n(C)c4C3)C2)c1  rM4 receptors (Rattus norvegicus)         pEC50         6.70 to 7.30
13  Cc1c2c(n(C)c(=O)c1C)CN(C(=O)CC1CN(c3ccc(F)c(OC4CC4)c3)C1)C2  rM4 receptors (Rattus norvegicus)         pEC50         6.00 to 6.70
14  Cc1c2c(n(C)c(=O)c1F)CN(C(=O)CC1CN(c3ccnc(C(F)(F)F)c3)C1)C2  rM4 receptors (Rattus norvegicus)         pEC50         6.70 to 7.30
15  Cc1cc(=O)n(C)c2c1CN(C(=O)CC1CN(c3cc(F)cc(C4CC4)c3)C1)C2  rM4 receptors (Rattus norvegicus)         pEC50         6.70 to 7.30
16  Cc1cc(=O)n(C)c2c1C(C)N(C(=O)CC1CN(c3ccc(C(F)(F)F)cc3)C1)C2 (stereo not shown)  rM4 receptors (Rattus norvegicus)         pEC50         6.00 to 6.70
17  Cc1c2c(n(C)c(=O)c1C)CN(C(=O)CC1CN(c3nc(C4CC4)c(C(F)(F)F)s3)C1)C2  rM4 receptors (Rattus norvegicus)         pEC50         6.00 to 6.70
18  COc1c2c(n(C)c(=O)c1C)CN(C(=O)CC1CN(c3ccnc(C(F)(F)F)c3)C1)C2  rM4 receptors (Rattus norvegicus)         pEC50         6.00 to 6.70
19  Cc1c2c(n(C)c(=O)c1C)CN(C(=O)CC1CN(c3ccc(C(F)(F)F)cc3)C1)C2  rM4 receptors (Rattus norvegicus)         pEC50         6.70 to 7.30
20  Cc1c2c(n(C)c(=O)c1C)CN(C(=O)CC1CN(c3cccc(F)c3F)C1)C2  rM4 receptors (Rattus norvegicus)         pEC50         6.70 to 7.30
21  Cc1c2c(n(C)c(=O)c1C1CC1)CN(C(=O)CC1CN(c3ccnc(C(F)(F)F)c3)C1)C2  rM4 receptors (Rattus norvegicus)         pEC50         6.00 to 6.70
22  Cc1cc(=O)n(C)c2c1CN(C(=O)CC1CN(c3ccnc(C(F)(F)F)n3)C1)C2  rM4 receptors (Rattus norvegicus)         pEC50         6.00 to 6.70
23  Cc1c2c(n(C)c(=O)c1C)CN(C(=O)CC1CN(c3ccc(F)c(C4CC4)c3)C1)C2  rM4 receptors (Rattus norvegicus)         pEC50         6.70 to 7.30
24  COc1cc(N2CC(CC(=O)N3Cc4c(C)cc(=O)n(C)c4C3)C2)cc(C(F)(F)F)n1  rM4 receptors (Rattus norvegicus)         pEC50         6.00 to 6.70
25  Cc1c2c(n(CC(F)(F)F)c(=O)c1Cl)CN(C(=O)CC1CN(c3cncnc3)C1)C2  rM4 receptors (Rattus norvegicus)         pEC50         6.00 to 6.70
26  Cc1c2c(n(C)c(=O)c1Cl)CN(C(=O)CC1CN(c3cccc(C(F)(F)F)c3)C1)C2  rM4 receptors (Rattus norvegicus)         pEC50         6.70 to 7.30
27  COc1cc(N2CC(CC(=O)N3Cc4c(C)c(Cl)c(=O)n(C)c4C3)C2)ccn1  rM4 receptors (Rattus norvegicus)         pEC50         6.00 to 6.70
28  Cc1cc(=O)n(C2CC2)c2c1CN(C(=O)CC1CN(c3ccnc(C(F)(F)F)c3)C1)C2  rM4 receptors (Rattus norvegicus)         pEC50               < 6.00
29  Cc1c2c(n(C)c(=O)c1C)CN(C(=O)CC1CN(c3ncns3)C1)C2  rM4 receptors (Rattus norvegicus)         pEC50         6.00 to 6.70
30  Cc1c2c(n(CC(F)(F)F)c(=O)c1Cl)CN(C(=O)CC1CN(c3ccncn3)C1)C2  rM4 receptors (Rattus norvegicus)         pEC50               < 6.00
